Below is a list of entries, each paired with its recorded melting point value.
Measured metric: melting point

{"Compound": "O=C1C=CC(=O)c2c1cccc2[N+](=O)[O-]", "Assay value": "161 °C"}
{"Compound": "Nc1c(Br)cc(Br)cc1S(=O)(=O)C(F)F", "Assay value": "84 to 88 °C"}
{"Compound": "CCCN(CCCCNC(=O)N1CC=C(c2ccccc2)CC1)C1CCc2ncsc2C1 (centres undefined)", "Assay value": "115 °C"}
{"Compound": "O=C(CN(C(=O)OCc1ccccc1)c1ccc(Cl)cc1)NCCc1ccc(OCc2ccccc2)c(OCc2ccccc2)c1", "Assay value": "114 to 116 °C"}
{"Compound": "CCOC1(c2ccccc2)c2cc(Cl)ccc2NC(=O)N1c1ccccc1 (centres undefined)", "Assay value": "209 to 211 °C"}
{"Compound": "CC(Oc1ccc(Oc2ccc(C(F)(F)F)cc2)cc1)C(=O)O (centres undefined)", "Assay value": "138 to 140 °C"}
{"Compound": "CCOc1ccc2c(c1)n(C1CCOCC1)c(=O)n2Cc1ccc(NC(=O)N(CC)CC)cc1OC", "Assay value": "168 °C"}
{"Compound": "COc1cc(N2CCN([C@H]3CC[C@@H](c4cccs4)CC3)CC2)c2ncccc2c1", "Assay value": "184 to 186 °C"}
{"Compound": "NS(=O)(=O)c1cc(C(=O)O)cc(OCc2ccccc2)c1-c1ccccc1", "Assay value": "199 to 200 °C"}
{"Compound": "NCCOc1cc(Cl)cc(Cl)c1", "Assay value": "86 to 89 °C"}
{"Compound": "O=C(O)c1ccc(-c2nc(NCc3ccc4c(c3)OCO4)c3c4c(oc3n2)CCCC4)cc1", "Assay value": "205 °C"}
{"Compound": "O=C(Nc1ccc2[nH]c(=O)sc2c1)C(=O)N1CCC(Cc2ccccc2)CC1", "Assay value": "201 to 203 °C"}
{"Compound": "CCC[C@H](NC(=O)CNC)C(=O)N[C@@H](CCCNC(=N)N)C(=O)N[C@@H](C)P(=O)(O)O", "Assay value": "200 °C"}
{"Compound": "COc1ccc(CCCNc2c(C)c(C)c3c(c2C)C(c2ccc(C(C)C)cc2)C(C)(C)O3)cc1 (centres undefined)", "Assay value": "62 to 65 °C"}
{"Compound": "C=CCNc1nc(N2CCc3ccccc3CC2)c(C#N)c(=O)n1CC=C", "Assay value": "181 to 182 °C"}
{"Compound": "C=CCOc1ccc(-c2ccc(O)cc2)cc1", "Assay value": "168 to 170 °C"}
{"Compound": "Fc1ccc2occ(CCN3CCN(c4cccc5cccnc45)CC3)c2c1", "Assay value": "54 °C"}
{"Compound": "CCC(OC(=O)CCNC(=O)OC(C)(C)C)c1cc2n(c(=O)c1C)Cc1cc3ccccc3nc1-2 (centres undefined)", "Assay value": "155 to 158 °C"}
{"Compound": "CC1=NC2CN=C(c3ccccc3)c3cc(Cl)ccc3C2C(=O)N1 (centres undefined)", "Assay value": "155 to 160 °C"}

====

Here the recorded melting point is given for each entry.

{"Compound": "CN1CCN(C(=O)c2cccc3cc[nH]c23)CC1", "melting point": "176 to 178 °C"}
{"Compound": "COc1ccc(Nc2ccn(C(C)=O)n2)cc1", "melting point": "123 to 124 °C"}
{"Compound": "CCOC(=O)N1CCC(NC(=O)c2ccc(Cl)cc2Cl)C12CCCCC2 (stereo not given)", "melting point": "143 to 144 °C"}
{"Compound": "CCc1c(CNS(=O)(=O)c2cccc(Cl)c2)nn(-c2ccc(Cl)cc2Cl)c1-c1ccc(Br)cc1", "melting point": "169 °C"}
{"Compound": "Cc1ccc(-c2csc(-c3ccc(C(=O)O)cc3)n2)cc1C", "melting point": "261 to 262 °C"}

====

melting point values for the molecules below.
Measured metric: melting point

{"Molecule": "CSC1C(=O)Nc2c(-c3ccccc3)cccc21 (centres undefined)", "Assay value": "164 to 166 °C"}
{"Molecule": "Cc1nnc2n1-c1sc(CCc3ccc(CC(C)C)cc3)cc1C(c1ccccc1Cl)=NC2c1ccccc1 (centres undefined)", "Assay value": "170 to 172 °C"}
{"Molecule": "CCOC(=O)c1cnc2c3cc(NC(=O)Nc4ccccc4)ccc3c(C)cn2c1=O", "Assay value": "> 300 °C"}
{"Molecule": "Clc1ccc2c(c1)N(c1ncnc3cc4c(cc13)OCCO4)CC2", "Assay value": "209 to 211 °C"}
{"Molecule": "Clc1ccc(Cl)c(CN2CCNc3ncc(-c4ccc(Cl)nc4)cc32)c1", "Assay value": "205 °C"}
{"Molecule": "O=c1ccccn1[C@@H]1c2cc(C(F)(F)C(F)(F)C(F)(F)F)ccc2OC(CF)(CF)[C@H]1O (relative stereo)", "Assay value": "111 to 113 °C"}
{"Molecule": "Brc1ccc(N2CCN(CCCc3[nH]nc4c3CCCC4)CC2)cc1", "Assay value": "145 to 147 °C"}
{"Molecule": "CCOC1=C(C#N)S(=O)(=O)N=C1N", "Assay value": "236 to 238 °C"}
{"Molecule": "CSC1=NC(=O)C(=Cc2cc(C(C)(C)C)c(O)c(C(C)(C)C)c2)N1", "Assay value": "248 to 249 °C"}

====

Measured melting point by item
Measured metric: melting point

{"Compound": "CCOC(=O)c1cc(OC)c(C(=O)OCC)cc1Br", "Assay value": "61 to 63 °C"}
{"Compound": "Cc1noc(NC(=O)N2CCN(c3nccc(-c4cccc(F)c4)n3)CC2)c1C", "Assay value": "161 to 162 °C"}
{"Compound": "CCOC(=O)COc1ccc(CN2C(=O)C3(COc4cc5c(cc43)OCCO5)c3ccccc32)cc1 (stereo not given)", "Assay value": "59 to 61 °C"}
{"Compound": "C=CCC(CO)C(O)c1cccnc1 (stereo not given)", "Assay value": "112 to 113 °C"}
{"Compound": "COCCOc1ccc(Sc2c(O)c3c(=O)n(-c4ccccc4)c4ccccc4c3oc2=O)cc1", "Assay value": "144 to 146 °C"}
{"Compound": "CNC(=O)C(CCO)C1(C)OCCc2c1[nH]c1ccccc21 (stereo not given)", "Assay value": "169 to 171 °C"}
{"Compound": "Cc1oc(=O)oc1CSc1ccc(Cl)cc1", "Assay value": "54 to 57 °C"}
{"Compound": "CC(=O)OC(C)C=C(C)c1ccc(-c2ccccc2)cc1 (stereo not given)", "Assay value": "62 to 64 °C"}
{"Compound": "O=C1NCCc2ccc(OCCCCN3CCCN(c4cccc(Cl)c4Cl)CC3)cc21", "Assay value": "86 to 88 °C"}
{"Compound": "COc1ccc(N2CCN(c3ccc(NC(=O)NN)nc3)CC2)cc1", "Assay value": "260 to 263 °C"}

====

This listing pairs compounds with measured melting point.

{"Compound": "O=C(Nc1ccc(-n2nc(C(F)(F)F)cc2C(F)(F)F)cc1)c1cc([N+](=O)[O-])cc([N+](=O)[O-])c1", "melting point": "> 230 °C"}
{"Compound": "O=C(Cc1ccc(-c2cccc(F)c2)cc1)Nc1n[nH]c2c1CCC2", "melting point": "180 to 181 °C"}
{"Compound": "Cc1cccc(CCc2c(C(C)C)nc(C(C)C)c(CO)c2-c2ccc(F)cc2)c1", "melting point": "148 to 150 °C"}
{"Compound": "Cn1cnc2c1c(=O)n(CCCN1CCN(c3ccc(Cl)nn3)CC1)c(=O)n2C", "melting point": "285 to 287 °C"}
{"Compound": "CC(C)(C)OC(=O)N1CCC(CCCCN2C(=O)c3ccccc3C2=O)CC1", "melting point": "100 to 102 °C"}
{"Compound": "O=C1CC2(CCCC2)c2ccc([N+](=O)[O-])cc21", "melting point": "104 °C"}
{"Compound": "CCCCCCC(C)Oc1cc(O)c2c(C)c(CCC(=O)OCC)c(=O)oc2c1 (stereo unspecified)", "melting point": "116 to 117 °C"}
{"Compound": "CCOC(=O)Cc1ccc(NC(=O)c2cc(C(C)C)c(C(C)C)o2)cc1", "melting point": "91.5 to 92.5 °C"}
{"Compound": "CC(C)CC1OC[C@@H]2CCCN2C1=O (stereo partly specified)", "melting point": "61 to 65 °C"}
{"Compound": "N#CCOc1cc(C(F)(F)F)nc2ccc(-c3cc4ccccc4o3)cc12", "melting point": "174 to 176 °C"}
{"Compound": "CCCCCCCCCCCCCCCC(=O)OC(COCc1ccc(OC)cc1)COC(=O)CCCCCCCCCCCNC(=O)OCc1ccccc1 (stereo unspecified)", "melting point": "44 to 47 °C"}
{"Compound": "O=C1CCN(c2cc(Cl)cc3cccnc23)CC1", "melting point": "223 to 225 °C"}
{"Compound": "COC(=O)c1sccc1S(=O)(=O)N=C(N)NNc1nc(C)cc(C)n1", "melting point": "213 °C"}
{"Compound": "CCOC(=O)c1c(CCl)nc2sc(C)c(C)c2c1-c1ccc(OC)c(OC)c1", "melting point": "162 to 163 °C"}
{"Compound": "C[C@H]1C[C@H](C(=O)O)c2cc(Cl)c(Cl)cc2O1 (relative stereo)", "melting point": "108 to 110 °C"}
{"Compound": "COc1cccc2c(Nc3ccc(O)cc3C)c(C(=O)C(C)C)cnc12", "melting point": "243 to 245 °C"}
{"Compound": "C=CC[C@@H]1CCc2cc(OC)ccc2[C@H]1O (relative stereo)", "melting point": "63 to 65 °C"}
{"Compound": "CCOC(=O)C1=C(COCCn2c(C)nc3ccccc32)NC2=C(C(=O)C(C)(C)CC2)C1c1ccccc1Cl (stereo unspecified)", "melting point": "118 to 120 °C"}
{"Compound": "Cc1ccc(C(=O)N2CCC3(CC2)OCCO3)cc1", "melting point": "59 to 61 °C"}
{"Compound": "O=C1N(Cc2cnc(Br)s2)c2ccccc2C12COc1cc3c(cc12)OCO3 (stereo unspecified)", "melting point": "215 to 217 °C"}
{"Compound": "N#Cc1cc2c3c(cccc3c1N1CCCCC1)C(=O)N(O)C2=O", "melting point": "> 250 °C"}
{"Compound": "O=c1cc(COC2CCCCO2)occ1OCc1ccc(CBr)cc1 (stereo unspecified)", "melting point": "83.5 °C"}
{"Compound": "CN(C)C(=O)c1c(-c2ccccc2)ccc2ccccc12", "melting point": "133 to 134 °C"}
{"Compound": "Cc1c(NC(=O)c2ccc(OC[C@@H]3CCCO3)cc2)ccc2cc(CN3CCC(C)(O)CC3)n(C)c12", "melting point": "140 to 141 °C"}
{"Compound": "COC(=O)CCCCCCCCC(=O)c1ccccc1", "melting point": "37 to 38 °C"}
{"Compound": "CN1C(=O)CC[C@]2(C)c3ccc(-c4ccc([N+](=O)[O-])cc4)cc3CC[C@@H]12", "melting point": "59 to 60 °C"}
{"Compound": "CCn1ncc2c3noc(-c4cccc(C)c4)c3cnc21", "melting point": "178 to 179 °C"}
{"Compound": "Cc1cc(N)nc(CCc2nc3cc(-c4ccc(S(=O)(=O)N5CCN(C)CC5)cc4)cnc3[nH]2)c1", "melting point": "135 °C"}
{"Compound": "N#Cc1cc(F)c(F)cc1N", "melting point": "114 °C"}
{"Compound": "O=C(O)c1ccc(CNS(=O)(=O)c2ccc(Br)cc2)cc1", "melting point": "268 to 271 °C"}
{"Compound": "COc1ccc(OC)c2c1CCC(O)C2 (stereo unspecified)", "melting point": "128 to 129 °C"}
{"Compound": "NN(CCO)c1ccc(-c2ccc(Cl)cc2)nn1", "melting point": "172 to 174 °C"}
{"Compound": "CS(=O)(=O)N1CCS(=O)c2cccc(Cl)c2C1 (stereo unspecified)", "melting point": "167 to 169 °C"}
{"Compound": "CC(=O)N1CCC(C)(C)C2=C1CCc1cc(Cl)ccc12", "melting point": "126 to 127 °C"}
{"Compound": "N#CC1=C(Nc2ccc(Br)cc2)CCC1", "melting point": "136 to 138 °C"}
{"Compound": "CC(=O)C(=Cc1cc(Cl)c(S(C)(=O)=O)c(Cl)c1)C(C)=O", "melting point": "134 to 136 °C"}
{"Compound": "O=C(O)c1c[nH]c(=O)n(-c2ccccc2S)c1=O", "melting point": "254 to 255 °C"}
{"Compound": "N#Cc1ccc(OC2CCOC2=O)cc1C(F)(F)F (stereo unspecified)", "melting point": "107 to 108 °C"}
{"Compound": "O=C(O)c1cncc(-c2cnc3c(c2)N(Cc2cc(F)ccc2F)CCN3)c1", "melting point": "255 to 260 °C"}
{"Compound": "Cc1ccc(O)cc1C=O", "melting point": "116 to 118 °C"}
{"Compound": "CC(C)Nc1cccnc1N1CCN(C(=O)c2ccc(C(=O)NCCCO)cc2)CC1", "melting point": "110 to 111 °C"}
